Listing: MIC of selected compounds
System: Bacillus subtilis ATCC 6633
test: Antibacterial microdilution broth method
Format: cell-based
experimental_context: ATCC6633, Mueller–Hinton broth, read-out: MIC B. subtilis ATCC 6633
I only need the number, in µg/mL, no unit after it.

Below are worked cases with known answers.
NC(=NNC(=S)N1CCCC1)c1cccc(Oc2ccccc2)n1 [Compound 9] | 0.49
NC(=NNC(=S)N1CCCC1)c1cccc(N2CCCC2)n1 [Compound 5] | 0.49
O=C(O)c1cn(C2CC2)c2cc(N3CCNCC3)c(F)cc2c1=O [CIP, ciprofloxacin, reference compound] | 0.03
NC(=NNC(=S)N1CCOCC1)c1cccc(N2CCCCC2)n1 [Compound 6] | 7.8
NC(=NNC(=S)N1CCCC1)c1cccc(N2CCCCC2)n1 [Compound 7] | 1.95

For the next question, use this compound.
Query string: For the compound NC(=NNC(=S)N1CCOCC1)c1cccc(N2CCCC2)n1 [Compound 4] , what MIC is on record?
Result string: 7.8
